# system: human Gal-1 (hGal-1)
# Sequence (P09382 2-135 limits assumed): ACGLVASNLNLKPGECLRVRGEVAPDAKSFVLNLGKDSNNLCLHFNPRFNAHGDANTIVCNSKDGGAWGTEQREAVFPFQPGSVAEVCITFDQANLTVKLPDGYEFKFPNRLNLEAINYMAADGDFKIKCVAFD
# measurement protocol: Competitive binding assay: binding of biotinylated hGal-1 to microplate-adsorbed asialofetuin (ASF)
# particulars: Activities on hGal-1; mean values of several measurements
The compounds listed here are annotated with their IC50.
readout label: IC50

1. CO[C@@H]1[C@@H](n2cc(-c3cc(F)c(F)c(F)c3)nn2)[C@@H](O)[C@@H](CO)O[C@@H]1Cc1cn(C2CCS(=N)(=O)CC2)nn1 (stereo partly drawn); 170 nM
2. CO[C@@H]1[C@@H](n2cc(-c3cc(F)c(F)c(F)c3)nn2)[C@@H](O)[C@@H](CO)O[C@@H]1Cc1cc(C2CCN(C(=O)C(C)C)CC2)on1; 1080 nM
3. OC[C@H]1O[C@H](CC2CC(c3cc(Cl)ccc3Cl)=NO2)[C@H](O)[C@@H](n2cc(-c3cc(F)c(F)c(F)c3)nn2)[C@H]1O (stereo partly drawn); 17100 nM
4. CO[C@@H]1[C@@H](n2cc(-c3cc(F)c(F)c(F)c3)nn2)[C@@H](O)[C@@H](CO)O[C@@H]1CC1CC(c2ccncc2)=NO1 (stereo partly drawn); 8790 nM
5. CO[C@@H]1[C@@H](n2cc(-c3ccc(Cl)c(F)c3)nn2)[C@@H](O)[C@@H](CO)O[C@@H]1Cc1cc(C2CCN(C(=O)OC(C)(C)C)CC2)on1; 1090 nM
6. CO[C@@H]1[C@@H](n2cc(-c3cc(F)c(F)c(F)c3)nn2)[C@@H](O)[C@@H](CO)O[C@@H]1Cc1cc(C2CNC(=O)C2)no1 (stereo partly drawn); 4760 nM
7. O=c1[nH]c2ccc(C3=NO[C@@H](C[C@H]4O[C@H](CO)[C@H](O)[C@H](n5cc(-c6cc(F)c(F)c(F)c6)nn5)[C@H]4O)C3)cc2o1 [Ex 1.31]; 13500 nM
8. CO[C@@H]1[C@@H](n2cc(-c3ccc(F)c(F)c3F)nn2)[C@@H](O)[C@@H](CO)O[C@@H]1CC1CC(C2CCN(C(=O)OC(C)(C)C)CC2)=NO1 (stereo partly drawn); 190 nM
9. CO[C@@H]1[C@@H](n2cc(-c3cc(F)c(F)c(F)c3)nn2)[C@@H](O)[C@@H](CO)O[C@@H]1Cc1cn(C2CCS(=O)(=NCc3ccccc3)CC2)nn1 (stereo partly drawn); 120 nM
10. CO[C@@H]1[C@@H](n2cc(-c3cc(F)c(F)c(F)c3)nn2)[C@@H](O)[C@@H](CO)O[C@@H]1Cn1cc(C2CCN(C(C)=O)CC2)nn1; 700 nM
11. CC(C)(C)c1cc(C[C@H]2O[C@H](CO)[C@H](O)[C@H](n3cc(-c4ccc(F)c(F)c4F)nn3)[C@H]2O)on1; 640 nM
12. CO[C@@H]1[C@@H](n2cc(-c3cc(F)c(F)c(F)c3)nn2)[C@@H](O)[C@@H](CO)O[C@@H]1Cc1cc(C2CCCC2)on1; 5260 nM

====

Attribute: IC50
# system: human Gal-1 (hGal-1)
# measurement protocol: Competitive binding assay: binding of biotinylated hGal-1 to microplate-adsorbed asialofetuin (ASF)
# particulars: Activities on hGal-1; mean values of several measurements
readout label: IC50

1) CO[C@@H]1[C@@H](n2cc(-c3ccc(F)c(F)c3F)nn2)[C@@H](O)[C@@H](CO)O[C@@H]1Cc1cc(C2(C)CCOCC2)on1 [Ex 1.269]; 0.9 µM
2) CN=[S@](=O)(C(C)C)N1CCC(c2cc(C[C@H]3O[C@H](CO)[C@H](O)[C@H](n4cc(-c5cc(F)c(F)c(F)c5)nn4)[C@H]3OC)no2)CC1 [Ex 1.139]; 1.13 µM
3) COc1cc(C2=NOC(C[C@H]3O[C@H](CO)[C@H](O)[C@H](n4cc(-c5cc(F)c(F)c(F)c5)nn4)[C@H]3O)C2)ccn1 (some centres unmarked) [Ex 1.24]; 13.3 µM
4) CO[C@@H]1[C@@H](n2cc(-c3cc(F)c(F)c(F)c3)nn2)[C@@H](O)[C@@H](CO)O[C@@H]1Cn1cc(C2CCCC2)nn1 [Example 4.48]; 2.86 µM
5) CO[C@@H]1[C@@H](n2cc(-c3cc(F)c(F)c(F)c3)nn2)[C@@H](O)[C@@H](CO)O[C@@H]1CC1CN(C2CCN(C(=O)N(C)C)CC2)C(=O)O1 (mixture of isomers) [Example 5.11]; 1.5 µM
6) CO[C@@H]1[C@@H](n2cc(-c3cc(F)c(F)c(F)c3)nn2)[C@@H](O)[C@@H](CO)O[C@@H]1Cc1cn(C2CCN([S+]([O-])C(C)(C)C)CC2)nn1 (some centres unmarked) [Example 4.19]; 1 µM
7) CO[C@@H]1[C@@H](n2cc(-c3cc(F)c(F)c(F)c3)nn2)[C@@H](O)[C@@H](CO)O[C@@H]1C[C@H]1CC(C2CCN(C(C)=O)CC2)=NO1 [Example 3.13]; 4.02 µM
8) CO[C@@H]1[C@@H](n2cc(-c3ccc(Br)c(F)c3F)nn2)[C@@H](O)[C@@H](CO)O[C@@H]1Cc1cc(C2CCOCC2)on1 [Ex 1.182]; 4.73 µM
9) CO[C@@H]1[C@@H](n2cc(-c3cc(F)c(F)c(F)c3)nn2)[C@@H](O)[C@@H](CO)O[C@@H]1Cc1cc(C2(O)CCCN(C(=O)OC(C)(C)C)CC2)on1 (some centres unmarked) [Ex 1.76]; 13.3 µM
10) CO[C@@H]1[C@@H](n2cc(-c3cc(F)c(F)c(F)c3)nn2)[C@@H](O)[C@@H](CO)O[C@@H]1Cc1cc(C2CCC(NC(=O)OC(C)(C)C)CC2)no1 (some centres unmarked) [Ex 1.134]; 10.8 µM
11) CC(C)(C)c1cc(C[C@H]2O[C@H](CO)[C@H](O)[C@H](n3cc(-c4cc(F)c(F)c(F)c4)nn3)[C@H]2OCC(=O)N2CC(O)C2)no1 [Example 2.40]; 4.58 µM

====

# system: human Gal-1 (hGal-1)
# measurement protocol: Competitive binding assay: binding of biotinylated hGal-1 to microplate-adsorbed asialofetuin (ASF)
# particulars: Activities on hGal-1; mean values of several measurements
We begin with a simple list: items and their reported log10 of IC50.
readout label: log10 of IC50 (log10 of the value in µM)

1. CO[C@@H]1[C@@H](n2cc(-c3ccc(Cl)c(F)c3)nn2)[C@@H](O)[C@@H](CO)O[C@@H]1Cc1cc(C2CCN(S(C)(=O)=O)CC2)on1 [Ex 1.156]; -0.03
2. CC(C)(C)c1cc(C[C@H]2O[C@H](CO)[C@H](O)[C@H](n3cc(-c4ccc(F)c(F)c4F)nn3)[C@H]2OCC(=O)O)on1 [Example 2.43]; -0.26
3. CO[C@@H]1[C@@H](n2cc(-c3cc(F)c(C)c(F)c3)nn2)[C@@H](O)[C@@H](CO)O[C@@H]1Cc1cc(C2CCOCC2)on1 [Ex 1.179]; 1.04
4. CC(C)O[C@@H]1[C@@H](n2cc(-c3cc(F)c(F)c(F)c3)nn2)[C@@H](O)[C@@H](CO)O[C@@H]1Cc1cc(C2CCN(C(=O)OC(C)(C)C)CC2)on1 [Example 2.23]; 0.31
5. CCN=S1(=O)CCC(n2cc(C[C@H]3O[C@H](CO)[C@H](O)[C@H](n4cc(-c5cc(F)c(F)c(F)c5)nn4)[C@H]3OC)nn2)CC1 (stereo partly drawn) [Example 4.24]; -0.51
6. CO[C@@H]1[C@@H](n2cc(-c3cc(F)c(C)c(F)c3)nn2)[C@@H](O)[C@@H](CO)O[C@@H]1Cc1cc(C2CCN(C(C)=O)CC2)on1 [Ex 1.161]; 0.22
7. CO[C@@H]1[C@@H](n2cc(-c3cc(F)c(F)c(F)c3)nn2)[C@@H](O)[C@@H](CO)O[C@@H]1Cn1cc(C2(C#N)CCCC2)nn1 [Example 4.50]; 0.63
8. CO[C@@H]1[C@@H](n2cc(-c3ccc(Cl)c(F)c3F)nn2)[C@@H](O)[C@@H](CO)O[C@@H]1Cc1cc(C2(C#N)CCCC2)no1 [Ex 1.293]; 0.47
9. COc1ccc(-c2cc(C[C@H]3O[C@H](CO)[C@H](O)[C@H](n4cc(-c5cc(F)c(F)c(F)c5)nn4)[C@H]3O)no2)cc1 [Ex 1.296]; 1.72
10. CO[C@@H]1[C@@H](n2cc(-c3ccc(Cl)c(F)c3F)nn2)[C@@H](O)[C@@H](CO)O[C@@H]1Cn1cc(C(C)(C)C)nn1 [Example 4.55]; -0.02
11. CO[C@@H]1[C@@H](n2cc(-c3cc(F)c(F)c(F)c3)nn2)[C@@H](O)[C@@H](CO)O[C@@H]1Cc1cc(C(C)(C)C(F)F)no1 [Ex 1.303]; -0.26
12. CO[C@@H]1[C@@H](n2cc(-c3cc(F)c(F)c(F)c3)nn2)[C@@H](O)[C@@H](CO)O[C@@H]1Cc1cc(C2CCN(S(=O)(=NC(C)C)C(C)C)CC2)on1 (stereo partly drawn) [Ex 1.197]; 0.34

Values were extracted from patent US12319672B2.
